Data origin: paper PMC6268972

# Tested on: MCF-7 cells
# EXPERIMENTAL_PROTOCOL: MTT antiproliferative activity assay, MCF-7
# Type: cell-based, human
# CONDITION_DETAILS: Homo sapiens, MCF7; MTT, 48 h treatment, average of three replicates; read-out: IC50 MCF-7
Counter-ions that a name gives are not always drawn.
MEASURED_QUANTITY: IC50 (µg/mL)
Answers are plain numbers, in µg/mL.

>>> meas_value("CC[C@]1(O)C[C@H]2CN(CCc3c([nH]c4ccccc34)[C@@](C(=O)OC)(c3cc4c(cc3OC)N(C=O)[C@H]3[C@@](O)(C(=O)OC)[C@H](OC(C)=O)[C@]5(CC)C=CCN6CC[C@]43[C@@H]65)C2)C1 [Vincristine sulfate, reference compound]")
10
>>> meas_value("COc1cc(-c2oc3cc(O)cc(O)c3c(=O)c2OC)ccc1O")
10.1

# ---- query compound ----
// query // fetch IC50 given entry COc1c(-c2ccc(O)c(O)c2)oc2cc(O)cc(O)c2c1=O
// result 11.2
